Target: T1, RXFP1 receptor (UniProt Q9HBX9 1-757, limits assumed)
T1 sequence (looked up): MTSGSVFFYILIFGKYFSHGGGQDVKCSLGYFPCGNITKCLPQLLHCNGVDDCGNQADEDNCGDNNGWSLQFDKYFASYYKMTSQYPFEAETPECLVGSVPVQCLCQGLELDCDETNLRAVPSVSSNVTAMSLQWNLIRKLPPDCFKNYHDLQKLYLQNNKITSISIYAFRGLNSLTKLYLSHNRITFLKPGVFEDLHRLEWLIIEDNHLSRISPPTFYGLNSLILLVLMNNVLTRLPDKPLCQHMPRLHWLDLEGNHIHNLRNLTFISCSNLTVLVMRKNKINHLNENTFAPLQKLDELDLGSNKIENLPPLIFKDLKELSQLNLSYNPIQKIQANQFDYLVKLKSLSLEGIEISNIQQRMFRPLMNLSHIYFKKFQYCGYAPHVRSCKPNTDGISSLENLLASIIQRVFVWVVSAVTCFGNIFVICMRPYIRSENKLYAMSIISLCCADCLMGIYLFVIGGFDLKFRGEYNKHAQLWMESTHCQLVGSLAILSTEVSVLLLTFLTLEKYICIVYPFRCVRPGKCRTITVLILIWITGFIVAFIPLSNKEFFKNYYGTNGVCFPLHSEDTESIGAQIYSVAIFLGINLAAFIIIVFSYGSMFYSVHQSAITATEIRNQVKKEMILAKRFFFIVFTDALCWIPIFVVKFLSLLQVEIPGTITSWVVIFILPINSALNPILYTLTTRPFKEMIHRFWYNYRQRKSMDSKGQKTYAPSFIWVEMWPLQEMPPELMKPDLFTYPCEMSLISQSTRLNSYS
Test: cell-based or functional assay
*1 amine or outer side, *2 acyl side, *3 side chain or, on linkers, in order; H or OH if unused. Primed or numbered codes have the meaning given here. Side-chain parts run from the residue outwards. [ ]: non-standard residue; d: D form. The star is where a group is joined. PEG12 = NCCOCCOCCOCCOCCOCCOCCOCCOCCOCCOCCOCCOCCC(=O)O; Heptadecanoyl = CCCCCCCCCCCCCCCCC(=O)*; γGlu = O=C(O)[C@H](CCC(=O)[*:2])N[*:1]; Stearoyl = CCCCCCCCCCCCCCCCCC(=O)*; Palmitoyl = CCCCCCCCCCCCCCCC(=O)*; Myristoyl = CCCCCCCCCCCCCC(=O)*; αMeK = C[C@](N)(CCCCN)C(=O)O; Nle = CCCC[C@H](N)C(=O)O; PEG2′ = PEG2 spacer unit; Aib = CC(C)(N)C(=O)O
Binarize EMax, OVCAR 5 cells (cAMP) at 90%; below is 1, at or above is -1.

>  <Binder>
Ac-LEGREKVRAK(Ac)I[Aib][Aib]EG[Nle]STWS[αMeK]RAK(Ac)K([PEG2′-PEG2′-PEG2′-PEG2′-γGlu-γGlu-γGlu-Stearoyl])-NH2 [peptide of SEQ ID NO: 135]

>  <Class name>
-1

$$$$
>  <Binder>
Ac-LEGREKVRAK(Ac)I[Aib][Aib]EG[Nle]STFS[Aib]RKK(Ac)K([PEG2′-PEG2′-PEG2′-PEG2′-γGlu-γGlu-γGlu-γGlu-Palmitoyl])-NH2 [peptide of SEQ ID NO: 147]

>  <Class name>
1

$$$$
>  <Binder>
Ac-LEGREKVRAK(Ac)I[Aib][Aib]EG[Nle]STFS[αMeK]RAK(Ac)[PEG2′][PEG2′][PEG2′][PEG2′]K([γGlu-γGlu-γGlu-γGlu-Myristoyl])-NH2 [peptide of SEQ ID NO: 172]

>  <Class name>
-1

$$$$
>  <Binder>
Ac-LEGREKVRAK(Ac)I[Aib][Aib]EG[Nle]STWS[Aib]RK[PEG12]K([γGlu-γGlu-γGlu-Stearoyl])-NH2 [peptide of SEQ ID NO: 34]

>  <Class name>
-1

$$$$
>  <Binder>
Ac-LEGREKVRAQI[Aib][Aib]EG[Nle]STWS[Aib]RK[PEG2′]K([PEG2′-PEG2′-γGlu-γGlu-γGlu-Palmitoyl])-NH2 [peptide of SEQ ID NO: 13]

>  <Class name>
1

$$$$

Next binder, please.
Enquiry: I wonder whether Ac-LEGREKVRAK(Ac)I[Aib][Aib]EG[Nle]STWS[Aib]RKK(Ac)K([PEG2′-PEG2′-PEG2′-γGlu-γGlu-γGlu-Heptadecanoyl])-NH2 [peptide of SEQ ID NO: 164] has EMax, OVCAR 5 cells (cAMP) below 90%. Can you tell?
Return: -1

Where do these numbers come from? They come from patent US20190233493A1.
